test system: A375 multi-cell spheroids with HUVEC/MSC, viability; assay: Anticancer human tumor A375 cell line growth inhibition [GQUAD]; settings: curve of first compound; second compound 3.16 µM;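 further: spheroids exposed to compounds for seven days before readout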
pIC50: −log10 of the molar value.
Measured pIC50, listed per entry.

// known answers, use as guide
CCCS(=O)(=O)Nc1ccc(F)c(C(=O)c2c[nH]c3ncc(-c4ccc(Cl)cc4)cc23)c1F + CN(C)c1ccc(Nc2c3ccc(NC(=O)CCN4CCCC4)cc3nc3cc(NC(=O)CCN4CCCC4)ccc23)cc1 ... > 7.50
COc1ccc([C@@H](O)c2cc(-c3ncnc4cc(N5CCOCC5)ccc34)c(F)cc2Cl)nn1 + CN(C)c1ccc(Nc2c3ccc(NC(=O)CCN4CCCC4)cc3nc3cc(NC(=O)CCN4CCCC4)ccc23)cc1 ... < 5.00
Cn1ncnc1[C@H]1c2n[nH]c(=O)c3cc(F)cc(c23)N[C@@H]1c1ccc(F)cc1 + Cc1cnc(CNC(=O)c2c(=O)c3ccc(N4CCCN(C)CC4)nc3n3c2sc2ccccc23)cn1 ... > 9.00
Nc1ccn(C2OC(CO)C(O)C2(F)F)c(=O)n1 (stereo not given) + CN(C)c1ccc(Nc2c3ccc(NC(=O)CCN4CCCC4)cc3nc3cc(NC(=O)CCN4CCCC4)ccc23)cc1 ... > 7.50

Alright, here's another molecule for you.
Ask: Recall the recorded pIC50 for CC1COCCN1c1cc(-c2ccnn2C)c2ccnc(-c3ccn[nH]3)c2n1 (stereo not given) + CN(C)c1ccc(Nc2c3ccc(NC(=O)CCN4CCCC4)cc3nc3cc(NC(=O)CCN4CCCC4)ccc23)cc1 with A375 multi-cell spheroids with HUVEC/MSC, viability and state it.
Result: 6.50

###

system: A375 multi-cell spheroids with HUVEC/MSC, viability; test: Anticancer human tumor A375 cell line growth inhibition [GQUAD]; details: second compound 3.16 µM; first compound 0.316 µM; stronger effect = lower value;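 further: spheroids exposed to compounds for seven days before readout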
# viability, T/C values compiled below

Worked cases, answers included:
C#Cc1c(F)ccc2cc(O)cc(-c3ncc4c(N5CC6CCC(C5)N6)nc(OCC56CCCN5CC(F)C6)nc4c3F)c12 (stereo unspecified) + Cc1[nH]c2ccc(F)cc2c1-c1nc2c3cccnc3c3ncccc3c2[nH]1 ... 74.2%
COc1ncnc(C2CC2)c1-c1ncc2cnn(Cc3ccc(-c4nc(C(F)(F)F)cn4C(C)C)cc3)c2n1 + Cc1cnc(CNC(=O)c2c(=O)c3ccc(N4CCCN(C)CC4)nc3n3c2sc2ccccc23)cn1 ... 30.9%

Ask: Which viability, T/C reading was recorded for the molecule O=c1[nH]cc(F)c(=O)[nH]1 + Cc1[nH]c2ccc(F)cc2c1-c1nc2c3cccnc3c3ncccc3c2[nH]1 ?
Result: 93.6%

###

tested on: A375 multi-cell spheroids with HUVEC/MSC, viability; experiment: Anticancer human tumor A375 cell line growth inhibition [GQUAD]; settings: second compound 0.0316 µM; first compound 0.0316 µM; stronger effect = lower value;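 further: spheroids exposed to compounds for seven days before readout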
Documented viability, T/C across a set of compounds
Write the answer as a number in %, unit excluded.

COc1cccc2c1C(=O)c1c(O)c3c(c(O)c1C2=O)CC(O)(C(=O)CO)CC3OC1CC(N)C(O)C(C)O1 (stereo unspecified) + Cc1cnc(CNC(=O)c2c(=O)c3ccc(N4CCCN(C)CC4)nc3n3c2sc2ccccc23)cn1 ... 109
COc1cccc2c1C(=O)c1c(O)c3c(c(O)c1C2=O)CC(O)(C(=O)CO)CC3OC1CC(N)C(O)C(C)O1 (stereo unspecified) + Cc1[nH]c2ccc(F)cc2c1-c1nc2c3cccnc3c3ncccc3c2[nH]1 ... 101
CC1COCCN1c1cc(C2(O)CC3CCC(C2)O3)c2cnn(-c3ccn[nH]3)c2n1 (stereo unspecified) + Cc1[nH]c2ccc(F)cc2c1-c1nc2c3cccnc3c3ncccc3c2[nH]1 ... 114

Ask: Reported viability, T/C for A375 multi-cell spheroids with HUVEC/MSC, viability, given COc1ccc([C@@H](O)c2cc(-c3ncnc4cc(N5CCOCC5)ccc34)c(F)cc2Cl)nn1 + Cc1[nH]c2ccc(F)cc2c1-c1nc2c3cccnc3c3ncccc3c2[nH]1 ?
Result: 105

Ask: Form field: viability, T/C recorded for CCc1c2c(nc3ccc(O)cc13)-c1cc3c(c(=O)n1C2)COC(=O)[C@]3(O)CC + CN(C)c1ccc(Nc2c3ccc(NC(=O)CCN4CCCC4)cc3nc3cc(NC(=O)CCN4CCCC4)ccc23)cc1 with A375 multi-cell spheroids with HUVEC/MSC, viability (enter value)
Result: 15

Ask: Query the reported viability, T/C for A375 multi-cell spheroids with HUVEC/MSC, viability; item: Cc1[nH]c2ccccc2c1CCNCc1ccc(/C=C/C(=O)NO)cc1 + Cc1cnc(CNC(=O)c2c(=O)c3ccc(N4CCCN(C)CC4)nc3n3c2sc2ccccc23)cn1
Result: 113

Ask: Write down the reported viability, T/C of CCCS(=O)(=O)Nc1ccc(F)c(C(=O)c2c[nH]c3ncc(-c4ccc(Cl)cc4)cc23)c1F + Cc1cnc(CNC(=O)c2c(=O)c3ccc(N4CCCN(C)CC4)nc3n3c2sc2ccccc23)cn1 , test system: A375 multi-cell spheroids with HUVEC/MSC, viability.
Result: 34.1

Ask: Field: viability, T/C (A375 multi-cell spheroids with HUVEC/MSC, viability). Entry: C=CC(=O)N1CCN(c2nc(=O)n(-c3c(C)ccnc3C(C)C)c3nc(-c4c(O)cccc4F)c(F)cc23)C(C)C1 (stereo unspecified) + Cc1[nH]c2ccc(F)cc2c1-c1nc2c3cccnc3c3ncccc3c2[nH]1
Result: 101

Ask: What reported viability, T/C corresponds to CC[C@@]1(O)C(=O)OCc2c1cc1n(c2=O)Cc2cc3c(CN(C)C)c(O)ccc3nc2-1 + CN(C)c1ccc(Nc2c3ccc(NC(=O)CCN4CCCC4)cc3nc3cc(NC(=O)CCN4CCCC4)ccc23)cc1 on A375 multi-cell spheroids with HUVEC/MSC, viability?
Result: 63.4

Ask: So what viability, T/C did Nc1ccn(C2OC(CO)C(O)C2(F)F)c(=O)n1 (stereo unspecified) + Cc1[nH]c2ccc(F)cc2c1-c1nc2c3cccnc3c3ncccc3c2[nH]1 get with A375 multi-cell spheroids with HUVEC/MSC, viability?
Result: 20.4

Ask: Record lookup: for A375 multi-cell spheroids with HUVEC/MSC, viability, what viability, T/C belongs to O=C(NO)c1cnc(N2CCN(S(=O)(=O)c3ccc4ccccc4c3)CC2)nc1 + Cc1cnc(CNC(=O)c2c(=O)c3ccc(N4CCCN(C)CC4)nc3n3c2sc2ccccc23)cn1 ?
Result: 115

Data provenance is PubChem BioAssay AID2060485.
